The origin of these recorded values is patent US20140057915A1.

Entries and their IC50 values follow.
target: Syk (Homo sapiens, UniProt P43405); experiment: Syk enzyme inhibition (FRET); assay type: biochemical; settings: Table 4a1

Field: example entries. Status: answers known.
Compound | IC50
Cc1ccc(-n2nc(C(C)(C)C)cc2NC(=O)Nc2ccc(Oc3ccnc(Nc4cccc(C(=O)NCCN5CCOCC5)c4)n3)c3ccccc23)cc1 [Example 3] | 11 nM
COc1ccc(-n2nc(C3CCOC3)cc2NC(=O)Nc2ccc(Oc3ccnc(Nc4cc(OC)cc(C(=O)NCCN5CCOCC5)c4)n3)c3ccccc23)cc1 (stereo not drawn) [Example 59] | 12 nM
COc1cc(Nc2nccc(Oc3ccc(NC(=O)Nc4cc(C(C)C)nn4-c4ccc(C)cc4)c4ccccc34)n2)cc(C(=O)N2CCOCC2)c1 [Example 12] | 16 nM

Item Cc1ccc(-n2nc(C3(C)COC3)cc2NC(=O)Nc2ccc(Oc3ccnc(Nc4cccc(C(=O)NCCN5CCOCC5)c4)n3)c3ccccc23)cc1 [Example 22] has what recorded IC50?
292 nM

Same again, this time with COc1cc(Nc2nccc(Oc3ccc(NC(=O)Nc4cc(C(C)(C)C)nn4-c4ccc(C)cc4)c4ccccc34)n2)cc(C(=O)NCCN(C)C)c1 [Example 43]
7 nM

Same again, this time with COc1cc(C(=O)NCCN2CCOCC2)ccc1Nc1nccc(Oc2ccc(NC(=O)Nc3cc(C(C)(C)C)nn3-c3ccc(C)cc3)c3ccccc23)n1 [Example 37]
149 nM

Same again, this time with COc1ccc(-n2nc(C(C)(C)C)cc2NC(=O)Nc2ccc(Oc3ccnc(Nc4cc(Br)cc(C(N)=O)c4)n3)c3ccccc23)cc1 [Example 42]
67 nM

Same again, this time with COc1ccc(-n2nc(C(C)C)cc2NC(=O)Nc2ccc(Oc3ccnc(Nc4cc(C)cc(C(=O)NCCN5CCOCC5)c4)n3)c3ccccc23)cc1 [Example 45]
> 1320 nM

Same again, this time with COc1ccc(C(=O)NCCO)cc1Nc1nccc(Oc2ccc(NC(=O)Nc3cc(C(C)C)nn3-c3ccc(C)cc3)c3ccccc23)n1 [Example 32]
152 nM

Same again, this time with COc1cc(Nc2nccc(Oc3ccc(NC(=O)Nc4cc(C(C)C)nn4-c4ccc(C)c(C)c4)c4ccccc34)n2)cc(C(=O)NCCN2CCOCC2)c1 [Example 56]
12 nM

Same again, this time with COc1ccc(-n2nc(C3(C)COC3)cc2NC(=O)Nc2ccc(Oc3ccnc(Nc4cccc(C(=O)NCCN5CCOCC5)c4)n3)c3ccccc23)cc1 [Example 23]
203 nM

Same again, this time with COc1cc(Nc2nccc(Oc3ccc(NC(=O)Nc4cc(C(C)C)nn4-c4ccc(C)cc4)c4ccccc34)n2)cc(C(=O)NCCO)c1 [Example 63]
865 nM

Same again, this time with COc1cc(Nc2nccc(Oc3ccc(NC(=O)Nc4cc(C(C)C)nn4-c4ccc(OC)nc4)c4ccccc34)n2)cc(C(=O)NCCN2CCOCC2)c1 [Example 10]
4 nM

Same again, this time with CCc1cc(NC(=O)Nc2ccc(Oc3ccnc(Nc4cc(OC)cc(C(=O)NCCN5CCOCC5)c4)n3)c3ccccc23)n(-c2ccc(C)cc2)n1 [Example 49]
57 nM

Same again, this time with COc1cc(Nc2nccc(Oc3ccc(NC(=O)Nc4cc(C(C)C)nn4-c4ccc(C)cc4)c4ccccc34)n2)cc(C(=O)N(C)CCN2CCOCC2)c1 [Example 68]
2 nM

Same again, this time with COc1cc(C(=O)NCCO)ccc1Nc1nccc(Oc2ccc(NC(=O)Nc3cc(C(C)C)nn3-c3ccc(C)cc3)c3ccccc23)n1 [Example 39]
130 nM
